Target: alpha1-adrenoceptor (rat brain membranes)
Assay: [3H]-Prazosin binding assay (affinity for alpha1-adrenoceptors)
Conditions: 0.2 nM [3H]-prazosin, partially purified rat brain membranes, Tris buffer, 60 minutes at 25°
// reported pIC50 per item
Please report pIC50 as the negative decimal logarithm of the molar concentration, giving only the number.

Completed entries (count: 3):
> print(dat)
                                   compound  measured.parameter  numeric.result
1  COC(=O)C1=C(N)NC(C)=C([N+](=O)[O-])C1c1ccccc1SCCCCN1CCC(C(=O)c2ccc(F)cc2)CC1 (stereo not shown)               pIC50            6.82
2  COC(=O)C1=C(N)NC(C)=C([N+](=O)[O-])C1c1ccccc1SCCCN1CCN(c2ccccc2OC)CC1 (stereo not shown)               pIC50            7.10
3  COC(=O)C1=C(N)NC(C)=C([N+](=O)[O-])C1c1ccccc1[S+]([O-])CCCCN1CCC(C(=O)c2ccc(F)cc2)CC1 (stereo not shown)               pIC50            6.82

For COC(=O)C1=C(N)NC(C)=C([N+](=O)[O-])C1c1ccccc1OCCCCCN1CCN(c2ncccn2)CC1 (stereo not shown) , what is its reported pIC50? 6.80

====

Tested on: guinea pig left atria
Assay: Positive inotropic effect in guinea pig left atria
Settings: Cavia porcellus; relative to Bay K8644, expressed in percent; read-out: Intrinsic Activity: ratio of the maximum effect of the test compound to that of Bay K8644
Measured Parameter: Emax (%)
# value in %; strip the unit string

Reference set, count: 6
> print(dat)
                                   molecule  numeric.result
1  COC(=O)C1=C(N)NC(C)=C([N+](=O)[O-])C1c1ccccc1SCCCCN1CCC(C(=O)c2ccc(F)cc2)CC1 (stereo not shown) [Example 7]             112
2  COC(=O)C1=C(N)NC(C)=C([N+](=O)[O-])C1c1ccccc1[S+]([O-])CCCCN1CCN(c2ncccn2)CC1 (stereo not shown) [Example 8]             254
3  COC(=O)C1=C(N)NC(C)=C([N+](=O)[O-])C1c1ccccc1SCCCCN1CCN(c2ccccc2OC)CC1 (stereo not shown) [Example 1]             166
4  COC(=O)C1=C(N)NC(C)=C([N+](=O)[O-])C1c1ccccc1SCCCN1CCN(c2ccccc2OC)CC1 (stereo not shown) [Example 10]             115
5  COC(=O)C1=C(C)NC(C)=C([N+](=O)[O-])C1c1ccccc1C(F)(F)F (stereo not shown) [Bay K8644]             100
6  COC(=O)C1=C(N)NC(C)=C([N+](=O)[O-])C1c1ccccc1S(=O)(=O)CCCCN1CCN(c2ccccc2OC)CC1 (stereo not shown) [Example 5]             119

As a next step, examine the molecule that follows.
Query (molecule): COC(=O)C1=C(N)NC(C)=C([N+](=O)[O-])C1c1ccccc1OCCCCCN1CCN(c2ccccc2OC)CC1 (stereo not shown) [Example 4] ; field requested: Emax 128
